Test system: L1210 leukemia ip in BDF1 mice, survival T/C
Assay Notes: NCI In Vivo Anticancer Drug Screen. Data for tumor model L1210 Leukemia (intraperitoneal) in B6D2F1 (BDF1) mice
Condition Info: endpoint: mean survival time; dose: 200.0 mg/kg/injection; schedule: Q04DX003 (ip); vehicle: other; higher = longer survival
Toxic doses and inconclusive results are not listed.
What T/C was measured for each of the following?

INSERT INTO assay_data (molecule, measurement_name, value_observed) VALUES
  ('CS(=O)(=O)N(CC(=O)O)Cc1ccc(F)cc1', 'T/C', '104 % of control'),
  ('COc1ccc(CN(CC(=O)O)S(C)(=O)=O)cc1', 'T/C', '98 % of control'),
  ('O=C1NN=C2CCCCC12 (stereo not drawn)', 'T/C', '97 % of control'),
  ('O=[N+]([O-])c1ccc(F)c(Cl)c1', 'T/C', '100 % of control'),
  ('CS(=O)(=O)N(CC(=O)O)Cc1ccc(Cl)cc1', 'T/C', '105 % of control'),
  ('CNC(=O)N(C(C)C)C1CCCCC1', 'T/C', '96 % of control'),
  ('Cn1c(=O)c2ccccc2c2cc(Br)ccc21', 'T/C', '92 % of control'),
  ('Cc1cc(C(C)(C)CC(C)(C)C)cc(O)c1O', 'T/C', '93 % of control'),
  ('COc1ccc(C(=O)c2c(C(=O)O)ccc3ccccc23)cc1', 'T/C', '100 % of control'),
  ('O=S(=O)(CCl)Nc1ccccn1', 'T/C', '108 % of control');

Batch: T/C for all items listed.
1. O=C(O)C(Cc1ccccc1)NC(=O)C(F)(F)F (stereo not drawn)
2. Cc1nnc(N)s1
3. Oc1ccccc1C=Nc1cccc2c(N=Cc3ccccc3O)cccc12

["89 % of control", "95 % of control", "86 % of control"]

* * *

What T/C was measured for each of the following?
Tested on: L1210 leukemia ip in BDF1 mice, survival T/C
Assay Notes: NCI In Vivo Anticancer Drug Screen. Data for tumor model L1210 Leukemia (intraperitoneal) in B6D2F1 (BDF1) mice
Condition Info: endpoint: mean survival time; dose: 400.0 mg/kg/injection; schedule: Q01DX009 (ip); vehicle: Klucel (hydroxypropylcellulose) (HPC); higher = longer survival
Experimental: The antitumor activity of compounds was measured in mice bearing transplantable tumors. Survival or tumor size were measured and the results are expressed as the measurement made in the treated group (T) divided by the measurement made in the vehicle treated control group (C). The tumor model used in this assay is L1210 Leukemia (intraperitoneal) in B6D2F1 (BDF1) mice
Toxic doses and inconclusive results are not listed.

INSERT INTO results (compound, value_observed) VALUES
  ('COc1ccc(-c2cc(C(=O)O)c3cc4ccccc4cc3n2)cc1Br', '105 % of control'),
  ('C/C(=N\N=C(/C)c1ccc(Cl)cc1)c1ccc(Cl)cc1', '94 % of control'),
  ('CC(=O)Oc1ccc(CC(C(=O)O)c2ccccc2)cc1 (stereo unspecified)', '95 % of control'),
  ('Cc1ccc(NC(=O)COc2cc(Cl)c(Cl)cc2Cl)c([N+](=O)[O-])c1', '89 % of control'),
  ('O=C(c1ccco1)C1Cc2ccccc2C1=O (stereo unspecified)', '97 % of control');

Give T/C for the following compound: CCOc1ccc(OCC)c2c1C(=O)c1ccccc1C2=O 97 % of control

Reference source for all entries: PubChem BioAssay AID248
